# assayed target: UniProtKB Q96GD4
# Sequence (Q96GD4 whole entry): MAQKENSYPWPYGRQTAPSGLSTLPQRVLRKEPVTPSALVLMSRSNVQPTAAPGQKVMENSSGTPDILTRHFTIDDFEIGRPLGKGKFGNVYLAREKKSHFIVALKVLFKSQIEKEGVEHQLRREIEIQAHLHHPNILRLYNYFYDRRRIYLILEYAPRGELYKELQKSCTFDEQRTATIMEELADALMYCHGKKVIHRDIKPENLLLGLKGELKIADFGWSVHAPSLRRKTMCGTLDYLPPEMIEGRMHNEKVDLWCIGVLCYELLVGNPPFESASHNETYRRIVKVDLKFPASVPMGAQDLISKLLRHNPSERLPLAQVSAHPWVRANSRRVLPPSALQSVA
pIC50: −log10 of the molar value. Structures can show the parent of a compound that is named as a salt.
attribute measured: pIC50

a: O=C(c1cccc(Cl)c1F)N1CCN(Cc2cc(Br)cc(Nc3nccs3)n2)CC1 [Example 81]
b: O=C(c1ccccc1)N1CCCN(Cc2cccc(Nc3ncns3)n2)CC1 [Example 35]
Hi team, can someone confirm which has the larger pIC50: a or b ? Thanks. API: response body contains the label of the selected item.
a

P: O=C(c1cccc(C(F)(F)F)c1F)N1C[C@@H]2C[C@H]1CN2Cc1cncc(Nc2cc[nH]n2)n1 [Example 47]
Q: O=C(c1cccc(C(F)F)c1F)N1CCN(Cc2cccc(Nc3nccs3)n2)CC1 [Example 15]
Smaller pIC50 value, P vs Q ? API: response body contains the label of the selected item.
P
(P: 5.66, Q: 6.00)

a: O=C(c1cc(CN2CCN(C(=O)c3cccc(Cl)c3F)CC2)nc(Nc2nccs2)c1)N1CCCC1 [Example 84, trifluoroacetate]
b: CS(=O)(=O)c1cccc(C(=O)N2CCN(Cc3cccc(Nc4ncc(Cl)s4)n3)CC2)c1 [Example 74]
c: NC(=O)c1cc(CN2CCN(C(=O)c3cccc(Cl)c3F)CC2)nc(Nc2nccs2)c1 [Example 87, trifluoroacetate]
# rank by pIC50, ascending (min first) Use the labels to give the requested order.
c, b, a

P: O=C(c1cccc(Cl)c1F)N1CCN(Cc2cccc(Nc3cc[nH]n3)n2)CC1 [Example 16]
Q: O=C(c1cccc(Cl)c1F)N1CCN(Cc2cc(N3CCCC3=O)cc(Nc3nccs3)n2)CC1 [Example 96]
Smaller pIC50 value, P vs Q ? API: response body contains the label of the selected item.
P
